read-out: Collagen III, COL3A1 (gene 1281); assay: BSK_hDFCGF_CollagenIII: BioMAP Diversity Plus: hDFCGF Assay for Collagen III Biomarker Activity (AID 2283056); conditions: primary human foreskin fibroblasts; actives raise or lower the signal
The source made the active and inactive calls. How the source made its calls: active means hit-call score of the fitted dose curve at least 0.9, where 1 is the maximum; inactive means score below 0.9.
Would you mind answering with one of these outcomes? active, inactive

Worked examples follow.
[[record]]
compound = "CCCOc1sc(C(=O)N2CCC(c3cc(CN)ccc3F)CC2)c(C)c1Br"
answer_label = "active"

[[record]]
compound = "NCC(F)(F)C(F)(F)C(F)(F)C(F)(F)C(F)(F)C(F)(F)C(F)(F)F"
answer_label = "inactive"

[[record]]
compound = "CCCOC(=O)c1ccc(O)cc1"
answer_label = "inactive"

[[record]]
compound = "COCC(C)OCC(C)O (configuration not stated)"
answer_label = "inactive"


// query What was the test verdict on CCCCOCCO ?
// result inactive

// query What do you have for Cc1cc(CCN2CCN(c3nsc4ccccc34)CC2)cc2c1NC(=O)CC2(C)C ?
// result active

// query What do you have for CCN(CC)CCNc1ccc(CNC=O)c2sc3ccc(OC)cc3c(=O)c12 ?
// result active

// query What do you have for CCCCCCC(=O)O ?
// result inactive

// query What do you have for CCCCC(CC)COC(=O)CCCCC(=O)OCc1ccccc1 (configuration not stated) ?
// result inactive
